tested on: Brain; test: Brain tissue binding in rat at 3 mg/kg, po; type: ADME, organism-based; design: dose 3 mg/kg, route oral; details: in vivo
measure name: Brain tissue binding (% bound) (%)

>>> result_value("O=C1CCCN1Cc1ccc(-n2nc(C(F)(F)F)c3c2COCC3)cc1")
94.9
>>> result_value("O=C(Cc1ccc(-n2nc(C(F)(F)F)c3c2CCCC3)cc1F)N1CCCC1")
99.4
>>> result_value("CS(=O)(=O)NCc1ccc(-n2nc(C(F)(F)F)c3c2CCCC3)cc1")
99.2
>>> result_value("CN(C)C(=O)Cc1ccc(-n2nc(C(F)(F)F)c3c2CCCC3)cc1")
98.8
>>> result_value("O=C(c1ccc(-n2nc(C(F)(F)F)c3c2COCC3)cc1)N1CCCC1")
95.5
>>> result_value("CN1CCc2c(C(F)(F)F)nn(-c3ccc(CN4CCCC4=O)cc3)c2C1")
63
>>> result_value("O=C(c1ccc(-n2nc(C(F)(F)F)c3c2CCCC3)cc1)N1CCOCC1")
96.8
>>> result_value("O=C(Cc1ccc(-n2nc(C(F)(F)F)c3c2CCCC3)cc1)N1CCCC1")
98.1
>>> result_value("O=S1(=O)CCCN1Cc1ccc(-n2nc(C(F)(F)F)c3c2CCCC3)cc1")
99.5
>>> result_value("O=C(c1ccc(-n2nc(C(F)(F)F)c3c2CCCC3)cc1)N1CCCC1")
99.4
